Each entry below carries its recorded IC50.
biological target: hOT7T175 (Homo sapiens, UniProt Q969F8, L364H); experiment: hOT7T175 receptor binding activity: binding inhibition of Cy-5-labeled metastin (40-54) on hOT7T175-expressed CHO cells
Sequence (Q969F8 whole entry L364H): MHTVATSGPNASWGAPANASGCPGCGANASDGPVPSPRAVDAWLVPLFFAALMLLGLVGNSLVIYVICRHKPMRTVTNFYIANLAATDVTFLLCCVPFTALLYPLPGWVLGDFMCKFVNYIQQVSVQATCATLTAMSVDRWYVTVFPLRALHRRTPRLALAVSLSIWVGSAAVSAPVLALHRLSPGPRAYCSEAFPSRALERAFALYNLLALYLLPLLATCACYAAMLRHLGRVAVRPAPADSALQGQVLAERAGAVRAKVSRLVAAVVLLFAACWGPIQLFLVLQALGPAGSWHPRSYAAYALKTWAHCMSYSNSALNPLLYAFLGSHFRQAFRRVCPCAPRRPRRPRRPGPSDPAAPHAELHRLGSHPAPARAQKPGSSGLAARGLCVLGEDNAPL
Square brackets hold non-standard residues; d marks the D form. Peptide text beside a SMILES is read from it. Arg(Me) = CNC(=N)NCCC[C@H](N)C(=O)O; azaGly = NNC(=O)O
Please respond with the number in nM and leave the unit unwritten.

[
  {
    "Molecule": "CC(C)C[C@H](NC(=O)CNC(=O)[C@H](Cc1ccccc1)NC(=O)[C@H](CO)NC(=O)[C@H](CC(N)=O)NC(=O)[C@H](CC(C)C)NC(=O)[C@H](CC(N)=O)NC(=O)[C@@H](N)Cc1ccc(O)cc1)C(=O)N[C@@H](CCCNC(=N)N)C(=O)N[C@@H](Cc1ccccc1)C(N)=O [Compound No. 68] (H-YNLNSFGLRF-NH2)",
    "System": "hOT7T175 (Homo sapiens, UniProt Q969F8, L364H)",
    "Numeric Result": 7.7
  },
  {
    "Molecule": "CNC(N)=NCCC[C@H](NC(=O)[C@H](CC(C)C)NC(=O)NNC(=O)[C@H](Cc1ccccc1)NC(=O)[C@H](CO)NC(=O)[C@H](CC(N)=O)NC(=O)[C@H](CO)NC(=O)[C@H](CC(N)=O)NC(=O)[C@H](N)Cc1ccc(O)cc1)C(=O)N[C@@H](Cc1ccccc1)C(N)=O [Compound No. 191] (H-[dY]NSNSF[azaGly]L[Arg(Me)]F-NH2)",
    "System": "hOT7T175 (Homo sapiens, UniProt Q969F8, L364H)",
    "Numeric Result": 300
  }
]

// moving on: another record for IC50
Input line: Item CNC(=N)NCCC[C@H](NC(=O)[C@H](CC(C)C)NC(=O)NNC(=O)[C@H](Cc1ccccc1)NC(=O)[C@H](Cc1ccccc1)NC(=O)[C@H](CO)NC(=O)[C@H](CC(N)=O)NC(=O)[C@H](Cc1ccccc1)NC(=O)[C@H](CC(N)=O)NC(=O)[C@H](N)Cc1ccc(O)cc1)C(=O)N[C@@H](Cc1ccccc1)C(N)=O [Compound No. 270] (H-[dY]NFNSFF[azaGly]L[Arg(Me)]F-NH2) with hOT7T175 (Homo sapiens, UniProt Q969F8, L364H) - IC50?
Output line: 15
